Documented koff across a set of binders
Biological target: T1, rat IAPP (rat, UniProt P12969 38-74)
T1 construct: Used as the soluble analyte in the Biacore assay in place of human IAPP; also called rat islet amyloid polypeptide
T1 peptide (looked up): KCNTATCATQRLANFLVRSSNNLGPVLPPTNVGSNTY
Experiment: SPR (Biacore), antibody captured on anti-human CM5 chip, rat IAPP as analyte, global 1:1 fit

[
  {
    "Binder": "humanized 3H6 antibody version H2L2 (antibody, V domains shown, also called h3H6-H2L2) VH: EVQLVESGGGLVQPGGSLKLSCAASGFTFSNYWMYWVRQAPGKGLEWVGEIRLKSDNYATHYAESVKGRFTISRDDSKNTAYLQMDSLKTEDTAVYYCTTFDYWGQGTLVTVSS VL: DVVMTQSPLSLPVTLGQPASISCKSSQSLLDSDGKTYLNWLQQRPGQSPKRLIYLVSKLDSGVPDRFSGSGSGTDFTLKISRVEAEDVGVYYCWQGRHFPYTFGQGTKLEIK",
    "koff (s⁻¹)": 0.00646
  },
  {
    "Binder": "humanized 3H6 antibody version H1L1 (antibody, V domains shown, it was captured on an anti-human chip; also called h3H6-H1L1) VH: EVQLVESGGGLVQPGGSLKLSCAASGFTFSNYWMYWVRQAPGKGLEWVGEIRLKSDNYATHYAESVKGRFTISRDDSKNTVYLQMDSLKTEDTAVYYCTIFDYWGQGTLVTVSS VL: DVVMTQSPLSLPVTLGQPASISCKSSQSLLDSDGKTYLNWLQQRPGQSPKRLIYLVSKLDSGVPDRFSGSGSGTDFTLKISRVEAEDVGVHYCWQGRHFPYTFGQGTKLEIK",
    "koff (s⁻¹)": 0.00231
  },
  {
    "Binder": "humanized 3H6 antibody version H3L2 (antibody, V domains shown, also called h3H6-H3L2) VH: EVQLVESGGGLVQPGGSLKLSCAASGFTFSNYWMYWVRQAPGKGLEWVGEIRLKSDNYATHYAESVKGRFTISRDDSKNTAYLQMDSLKTEDTAVYYCTIFDYWGQGTLVTVSS VL: DVVMTQSPLSLPVTLGQPASISCKSSQSLLDSDGKTYLNWLQQRPGQSPKRLIYLVSKLDSGVPDRFSGSGSGTDFTLKISRVEAEDVGVYYCWQGRHFPYTFGQGTKLEIK",
    "koff (s⁻¹)": 0.00625
  }
]
